Reference source: patent US20150210641A1

target: recombinant CYP-17 (Homo sapiens, UniProt P05093); experiment: Cyp17 assay: 3H-acetic acid release from [21-3H] 17α-hydroxyl-Pregnenolone in AD293 cells; settings: AD293 cells stably over-expressing recombinant CYP-17; eight concentrations 10 μM to 4.5 nM
Sequence (P05093 whole entry, species assumed): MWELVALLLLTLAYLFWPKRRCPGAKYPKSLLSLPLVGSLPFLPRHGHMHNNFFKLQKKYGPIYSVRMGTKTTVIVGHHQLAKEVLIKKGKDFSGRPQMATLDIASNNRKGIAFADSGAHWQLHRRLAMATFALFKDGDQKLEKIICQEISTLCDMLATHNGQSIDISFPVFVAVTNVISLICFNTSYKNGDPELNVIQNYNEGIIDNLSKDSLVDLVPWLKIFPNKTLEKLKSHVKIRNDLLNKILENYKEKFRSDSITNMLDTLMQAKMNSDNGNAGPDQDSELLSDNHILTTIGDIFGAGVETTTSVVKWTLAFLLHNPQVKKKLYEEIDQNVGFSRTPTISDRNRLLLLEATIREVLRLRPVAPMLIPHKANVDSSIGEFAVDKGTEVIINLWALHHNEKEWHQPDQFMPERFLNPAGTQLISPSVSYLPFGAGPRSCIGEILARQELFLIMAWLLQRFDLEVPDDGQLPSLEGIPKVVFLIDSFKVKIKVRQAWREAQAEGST
Field: class. Source value: IC50. Ranges: 0 (below 30 nM), 1 (30 nM to below 200 nM), 2 (200 nM or more)

molecule: CCN1CCN(C(c2ccncc2)c2ccc(-c3ccc(F)cc3OC)cc2)CC1 (stereo not shown)
class.assignment: 1
//
molecule: COc1cc(F)ccc1-c1ccc(C(c2ccncc2)N2CCN(c3ccccc3)CC2)cc1 (stereo not shown)
class.assignment: 1
//
molecule: COc1cc(F)ccc1-c1ccc(C(F)c2ccncc2)cc1 (stereo not shown)
class.assignment: 2
//
molecule: COc1ccc(-c2ccc(C(c3ccncc3)N3CCCCC3)cc2)cc1OC (stereo not shown)
class.assignment: 0
//
molecule: COc1cc(F)ccc1-c1ccc(C(c2ccncc2)N2CCN(C)CC2)cc1 (stereo not shown)
class.assignment: 1
//
molecule: COc1ccc(-c2ccc(C(OC(C)C)c3ccncc3)cc2)cc1OC (stereo not shown)
class.assignment: 0
//
molecule: COc1cc(F)ccc1-c1ccc(C(OC)c2ccncc2)cc1 (stereo not shown)
class.assignment: 2
//
molecule: COc1ccc(-c2ccc(C(F)(F)c3ccncc3)cc2)cc1OC
class.assignment: 1
//
molecule: COc1cc(F)ccc1-c1ccc(C(c2ccncc2)N2CCN(C3CCCC3)CC2)cc1 (stereo not shown)
class.assignment: 2
//
molecule: COc1cccc(-c2ccc(C(c3ccncc3)N3CCCCC3)cc2)c1 (stereo not shown)
class.assignment: 0
//
molecule: COc1cc(F)ccc1-c1ccc(C2(c3ccncc3)OCC(C)CO2)cc1 (stereo not shown)
class.assignment: 1
//
molecule: COc1cccc(-c2ccc(C(c3ccncc3)N3CCNCC3)cc2)c1 (stereo not shown)
class.assignment: 2
//
molecule: COc1cc(F)ccc1-c1ccc(C(c2ccncc2)N2CCOCC2)cc1 (stereo not shown)
class.assignment: 0
//
molecule: COc1cccc(-c2ccc(C(OC)c3ccncc3)cc2)c1 (stereo not shown)
class.assignment: 2
//
molecule: COc1ccc(-c2ccc(C(c3ccncc3)N3CCCC3)cc2)cc1OC (stereo not shown)
class.assignment: 0
//
molecule: COc1cc(F)ccc1-c1ccc(C(c2ccncc2)N2CCN(C(C)=O)CC2)cc1 (stereo not shown)
class.assignment: 0
//
molecule: COc1cc(F)ccc1-c1ccc(C(c2ccncc2)N2CCN(c3ccccc3C#N)CC2)cc1 (stereo not shown)
class.assignment: 1
//
molecule: COc1ccc(-c2ccc(C(c3ccncc3)N3CCN(C)CC3)cc2)cc1OC (stereo not shown)
class.assignment: 1
//
molecule: COc1cc(F)ccc1-c1ccc(C(c2ccncc2)N2CCC(O)CC2)cc1 (stereo not shown)
class.assignment: 0
//
molecule: COc1cc(F)ccc1-c1ccc(C2(c3ccncc3)OCC(C)(C)CO2)cc1
class.assignment: 2
//
molecule: COc1cc(F)ccc1-c1ccc(C(c2ccncc2)N2CCN(c3ccccn3)CC2)cc1 (stereo not shown)
class.assignment: 1
//
molecule: COc1cc(F)ccc1-c1ccc(C(NCCNC(=O)OC(C)(C)C)c2ccncc2)cc1 (stereo not shown)
class.assignment: 1
//
molecule: COc1cc(F)ccc1-c1ccc(C(NCCN)c2ccncc2)cc1 (stereo not shown)
class.assignment: 1
//
molecule: COc1ccc(-c2ccc(C(c3ccncc3)N3CCOCC3)cc2)cc1OC (stereo not shown)
class.assignment: 0
//
molecule: COc1cc(F)ccc1-c1ccc(C(c2ccncc2)N2CCNCC2)cc1 (stereo not shown)
class.assignment: 2
//
molecule: COc1cc(F)ccc1-c1ccc(C(F)(F)c2ccncc2)cc1
class.assignment: 2
//
molecule: COc1ccc(-c2ccc(C3(c4ccncc4)OCCO3)cc2)cc1OC
class.assignment: 0
//
molecule: CCOC(c1ccncc1)c1ccc(-c2ccc(OC)c(OC)c2)cc1 (stereo not shown)
class.assignment: 0
